- Test system: 786-0 renal
- protocol.notes: NCI-60 one-dose screen, 48 h (100 = growth as untreated, 0 = no growth, -100 = all killed)
- measurement.conditions: 10 µM unless noted
Compounds without any hit were thinned out: in the full panel of roughly 83,000, 20% have a hit.
quantity: growth (%)
Write the value in % as a bare number.

Worked cases, growth given:
[[record]]
compound = "O=c1c2ccccc2[nH]n1Cc1ccc2c(c1)OCO2"
u = "%"
recorded_result = 93.3

[[record]]
compound = "CN(C)c1ccc2cc(-c3nc4ccccc4s3)c(N)nc2c1"
u = "%"
recorded_result = 35.3


Which value of growth has been reported for `CCCCCCCCCCCC(=O)OCCNC(=O)C[n+]1ccccc1` in the records?
112

----------
- System: IGROV1 ovarian
- protocol.notes: NCI-60 one-dose screen, 48 h (100 = growth as untreated, 0 = no growth, -100 = all killed)
- measurement.conditions: 10 µM unless noted
The panel holds about 83,000 compounds, 20% with a hit somewhere; the sample as a whole holds those more often.
Reported growth maps to class as: low class: < 40%; middle class: ≥ 40% and < 70%; high class: ≥ 70%

Consider the worked cases shown below.
[[record]]
molecule = "CN(C)c1ccc2cc(-c3nc4ccccc4s3)c(N)nc2c1"
label = "middle class"

[[record]]
molecule = "C=CCn1c(SCC(=O)Nc2ccc(C(=O)/C=C/c3cc(OC)c(OC)c(OC)c3)cc2)nnc1-c1ccc(OC)cc1"
label = "low class"

[[record]]
molecule = "COc1ccc(/C=C2/C(=O)Nc3cc(Cl)c(-c4csc(N)n4)cc32)cc1"
label = "middle class"


Read the next record carefully.
Determine which band this molecule sits in: `Cc1[nH]c2ccc(F)cc2c1CCNC(=O)C1CCN(C(=O)c2ccc(-c3ccccc3)cc2)CC1`
middle class

----------
- Tested on: NCI-H226 lung
- protocol.notes: NCI-60 one-dose screen, 48 h
- measurement.conditions: 10 µM unless noted
This is part of a sample that, as a whole, favours compounds with a hit. Of some 83,000 tested, about 20% had one in any assay. Calls of active or inactive are those of the source. The calls were made as follows: active = growth percent below 10; inactive = the rest.
Answer with one of the outcomes y = active, n = inactive

Consider the worked cases shown below.
[[record]]
compound = "Nc1ncnc2c1c(-c1ccc(Oc3ccccc3)cc1)nn2C[C@@H]1SSC[C@H]1O"
label = "y"

[[record]]
compound = "CC(Cc1cccc(C(F)(F)F)c1)NCCOC(=O)c1ccccc1 (stereo not given)"
label = "n"

[[record]]
compound = "NS(=O)(=O)c1ccc(Nc2nc(O)c(/C=C3\\C=Nc4ccccc43)s2)cc1"
label = "n"

[[record]]
compound = "CC(C)(CCN=C(N)Nc1ccccn1)c1ccc(C(F)(F)F)cc1"
label = "n"


For `COc1ccc(Cn2cc(COc3ccc4c5ccnc(C)c5n(CCCc5ccccc5)c4c3)nn2)cc1` , which call appears in the assay record?
n

----------
- System: HT29 colon
- protocol.notes: NCI-60 one-dose screen, 48 h
- measurement.conditions: 10 µM unless noted
Compounds without any hit were thinned out: in the full panel of roughly 83,000, 20% have a hit. The source made the active and inactive calls. How the source made its calls: active means growth percent below 10; inactive means the rest.
Answer with one of the outcomes active, inactive

Consider the worked cases shown below.
[[record]]
compound = "Nc1nc(Cl)cc(NCc2ccc(CNc3cc(Cl)nc(N)n3)cc2)n1"
label = "inactive"

[[record]]
compound = "COc1ccc(/C=C2/C(=O)Nc3cc(Cl)c(-c4csc(N)n4)cc32)cc1"
label = "inactive"

[[record]]
compound = "CN1CCN(C(=O)/C=C/c2ccc([N+](=O)[O-])o2)CC1"
label = "inactive"

[[record]]
compound = "C=C1c2c(Cl)ccc(O)c2C(O)=C2C(=O)[C@]3(O)C(O)=C(C(N)=O)C(=O)[C@@H](N(C)C)[C@@H]3[C@@H](O)[C@H]12"
label = "inactive"

[[record]]
compound = "Nc1nc(Cl)c2c(C(F)(F)F)cn(CC3CCNCC3)c2n1"
label = "inactive"


Read the next record carefully.
For `S=c1[nH]nc(Cn2c3ccccc3c3ccncc32)o1` , which call appears in the assay record?
inactive

The measured values listed here are drawn from PubChem BioAssay (NCI).
